System: LXRa:RXRa (NR concentration 270 nM, RXRa partner concentration 90 nM)
Experiment: PBM binding z-score (relative to random genomic background probes); higher = stronger binding; sequences stand for … in GC…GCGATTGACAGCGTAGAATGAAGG
readout-name: PBM binding z-score

* CGTCCGAGGTCAAGGTCAGTGAAAGAGACTCGAA | 6.22
* TAGCCTAGTTCATTCAGGGGCCAGTATAGAAAGC | 0.593

Lookup: Please give the measured PBM binding z-score for this sequence: `CGAACAAGGTCATTGACAGGACAGTGAATAGTAA`
Found: 5.4

Lookup: Reported PBM binding z-score, sequence `ATCAAAAGGTCGAGGTGAGTATAGAGAAAGGGAA` : ____
Found: 4.01

Lookup: Data request, read-out PBM binding z-score, for `GGAACGAGGGCAAAGTTCATAGCATCTGTCGACG`
Found: 4.95
